# tgt: Smoothened (SMO) (Mus musculus)
# Construct: C3H10T1/2 cells (ATCC #CCL-226) were split and seeded; endogenous in cells; host or cells: C3H10T1/2 (ATCC #CCL-226)
# Sequence (P56726 33-793): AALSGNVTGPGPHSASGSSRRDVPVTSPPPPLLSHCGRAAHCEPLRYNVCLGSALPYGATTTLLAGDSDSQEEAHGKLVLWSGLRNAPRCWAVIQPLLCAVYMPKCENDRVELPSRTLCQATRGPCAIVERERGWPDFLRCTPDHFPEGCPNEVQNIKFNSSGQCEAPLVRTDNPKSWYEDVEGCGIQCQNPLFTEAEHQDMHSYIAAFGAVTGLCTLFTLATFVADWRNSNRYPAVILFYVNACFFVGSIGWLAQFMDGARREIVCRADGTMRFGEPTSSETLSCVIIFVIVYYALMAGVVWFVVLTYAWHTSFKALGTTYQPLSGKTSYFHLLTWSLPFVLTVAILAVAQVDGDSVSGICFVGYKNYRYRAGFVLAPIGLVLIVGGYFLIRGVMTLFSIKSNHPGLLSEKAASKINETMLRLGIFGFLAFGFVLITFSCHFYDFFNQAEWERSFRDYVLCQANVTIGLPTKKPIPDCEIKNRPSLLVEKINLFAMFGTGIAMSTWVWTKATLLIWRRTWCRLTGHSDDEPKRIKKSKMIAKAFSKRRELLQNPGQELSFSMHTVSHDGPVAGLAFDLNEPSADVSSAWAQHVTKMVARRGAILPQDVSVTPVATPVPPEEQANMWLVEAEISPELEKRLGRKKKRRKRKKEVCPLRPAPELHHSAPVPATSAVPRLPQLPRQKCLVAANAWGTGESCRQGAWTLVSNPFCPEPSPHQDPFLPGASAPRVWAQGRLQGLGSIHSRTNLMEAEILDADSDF
# measurement.description: Smoothened (SMO)/Sonic Hedgehog (SHh) Transient Transcriptional Activation Assay (Gli-luciferase reporter in C3H10T1/2 cells)
# Assay type: cell-based, murine
# test.context: C3H 10T1/2, 2 μM compound; transfected C3H10T1/2 cells, recombinant human SHh 250 ng/mL, 20 hours, luciferase readout; read-out: SMO CELL % INHIBITION @ 2 μM
# Description: As noted above, the compounds of the invention are useful as inhibitors of SMO. • Methods for determining the in vitro activity of these compounds are described below: Smoothened (SMO)/Sonic Hedgehog (SHh) Transient Transcriptional Activation Assay […] Luciferase assays were conducted on Day 4 using Dual-Glo Luciferase assay system (Promega #E2940) according to Promega's protocol. […] Plates were shaken at room temperature for 10 minutes, and then read on TopCount (Perkin-Elmer). […]
Where a name gives a salt, the structure may show the parent alone.
quantity.measured: inhibition at 2 µM (%)
Give bare numbers, in %.

| molecule | inhibition at 2 µM (%) |
| --- | --- |
| CCN1CC[C@@H](NC(=O)c2ccc3c(c2)OCCO3)C[C@@H]1c1nc2ccccc2[nH]1 [Example 44, hydrochloride] | 105 |
| COc1cc(C(=O)N[C@@H]2CCN(C)[C@@H](c3nc4ccccc4[nH]3)C2)ccc1F [Example 102, trifluoroacetate] | 102 |
| Cc1ccc2nc([C@@H]3C[C@@H](NC(=O)Nc4ccc(Cl)c(C(F)(F)F)c4)CN3C)[nH]c2c1 [Example 17] | 63.2 |
| Cc1cc(NC(=O)N[C@@H]2CCN(C)[C@@H](c3nc4ccccc4[nH]3)C2)cnc1C [Example 71, hydrochloride] | 101 |
| Cc1ccc2nccc(C(=O)N[C@@H]3CCN(C)[C@@H](c4nc5ccccc5[nH]4)C3)c2c1 [Example 103, trifluoroacetate] | 100 |

Answer for every listed entry: what is its inhibition at 2 µM? The entries follow.
1. CN1CC[C@@H](NC(=O)Nc2ccc(C(F)(F)F)cn2)C[C@@H]1c1nc2ccccc2[nH]1 [Example 101, hydrochloride]
2. COc1ccc(NC(=O)N[C@@H]2CCN(C)[C@@H](c3nc4ccc(F)cc4[nH]3)C2)cn1 [Example 139, hydrochloride]
3. CN(C)c1ccc(NC(=O)N[C@@H]2CCN(C)[C@@H](c3nc4ccccc4[nH]3)C2)cc1 [Example 56, hydrochloride]
4. COc1ccc(NC(=O)N[C@@H]2CCN(C)[C@@H](c3nc4ccc(Cl)cc4[nH]3)C2)cn1 [Example 133, hydrochloride]
5. CN1CC[C@@H](NC(=O)c2ccc3c(c2)OCCO3)C[C@@H]1c1nc2ccc(C#N)cc2[nH]1 [Example 63, hydrochloride]
6. CN1CC[C@@H](NC(=O)Nc2cc(F)cc3c2OCOC3)C[C@@H]1c1nc2ccccc2[nH]1 [Example 41, hydrochloride]
7. CN1CC[C@@H](NC(=O)Nc2ccc(C#N)cc2)C[C@@H]1c1nc2cc(C#N)ccc2[nH]1 [Example 19, hydrochloride]

Response:
1: 62.5; 2: 106; 3: 104; 4: 108; 5: 104; 6: 106; 7: 109

State the recorded inhibition at 2 µM for every item in the following list.
1. CN1CC[C@@H](NC(=O)Nc2cc(Cl)cc(Cl)c2)C[C@@H]1c1nc2ccccc2[nH]1 [Example 28, hydrochloride]
2. CN1CC[C@@H](NC(=O)c2cnc3c(c2)OCCO3)C[C@@H]1c1nc2ccccc2[nH]1 [Example 97, hydrochloride]

Response:
[108, 75.4]

Where do the numbers come from? From patent US8431597B2.
